Collected viability, T/C values appear next to each entry.
System: 276233-004-R-J1-PDC KRAS spheroids with HUVEC/MSC, viability
Experiment: Anticancer human tumor 276233-004-R-J1-PDC patient-derived colon adenocarcinoma cell line growth inhibition [KRAS2]
Settings: second compound 0.0316 µM; first compound 3.16 µM; hits give low values
Excerpt: Multicellular complex tumor spheroid response to RAS pathway inhibitors in combination with a targeted agents in patient-derived cell lines with oncogenic KRAS variants from multiple cancer types A high-throughput screen of multi-cell type tumor spheroids was designed to identify active combinations of targeted small molecules and KRAS pathway inhibitors. […] Compounds. […] If the clinical Cmax for an agent had not been determined, the highest concentration tested was 10 microM. […]
value-kind: viability, T/C (%)

molecule="CC(=O)OC12COC1CC(O)C1(C)C(=O)C(O)C3=C(C)C(OC(=O)C(O)C(NC(=O)OC(C)(C)C)c4ccccc4)CC(O)(C(OC(=O)c4ccccc4)C21)C3(C)C (centres undefined) + C=CC(=O)N1CCN(c2nc(OCC3CCCN3C)nc3c2CCN(c2cccc4cccc(C)c24)C3)CC1CC#N" value_kind="viability, T/C" data_value=94.8
molecule="O=C(c1cc(Cc2n[nH]c(=O)c3ccccc23)ccc1F)N1CCN(C(=O)C2CC2)CC1 + C=CC(=O)N1CCN(c2nc(OCC3CCCN3C)nc3c2CCN(c2cccc4cccc(C)c24)C3)CC1CC#N" value_kind="viability, T/C" data_value=91.2
molecule="COc1cc2nccc(Oc3ccc(NC(=O)C4(C(=O)Nc5ccc(F)cc5)CC4)cc3)c2cc1OC + C=CC(=O)N1CCN(c2nc(OCC3CCCN3C)nc3c2CCN(c2cccc4cccc(C)c24)C3)CC1CC#N" value_kind="viability, T/C" data_value=87.6
molecule="CC1(C)CCC(CN2CCN(c3ccc(C(=O)NS(=O)(=O)c4ccc(NCC5CCOCC5)c([N+](=O)[O-])c4)c(Oc4cnc5[nH]ccc5c4)c3)CC2)=C(c2ccc(Cl)cc2)C1 + C=CC(=O)N1CCN(c2nc(OCC3CCCN3C)nc3c2CCN(c2cccc4cccc(C)c24)C3)CC1CC#N" value_kind="viability, T/C" data_value=88

----------
test system: 276233-004-R-J1-PDC KRAS spheroids with HUVEC/MSC, viability; experiment: Anticancer human tumor 276233-004-R-J1-PDC cell line growth inhibition [KRAS2]; settings: second compound 0.316 µM; first compound 0.316 µM; hits give low values;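 further: cells exposed to agents for seven days before viability read; 100% = DMSO vehicle control wells and lower values mean fewer viable cells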
Collected viability, T/C values appear next to each entry.
value-kind: viability, T/C (%)

compound="COc1cc2nccc(Oc3ccc(NC(=O)C4(C(=O)Nc5ccc(F)cc5)CC4)cc3)c2cc1OC + COc1cc2nc(C)nc(NC(C)c3cc(N)cc(C(F)(F)F)c3)c2cc1OC1CCOC1" target_of_assay="276233-004-R-J1-PDC KRAS spheroids with HUVEC/MSC, viability" data_value=111
compound="Cn1nccc1Nc1nccc(-c2cc3c(s2)C(C)(C)N(CCN2CCOCC2)C3=O)n1 + CC1OCC2(CCN(c3cnc(Sc4ccnc(N)c4Cl)c(N)n3)CC2)C1N" target_of_assay="276233-004-R-J1-PDC KRAS spheroids with HUVEC/MSC, viability" data_value=65.5
compound="CC1COCCN1c1cc(-c2ccnn2C)c2ccnc(-c3ccn[nH]3)c2n1 (stereo not given) + C=CC(=O)N1CCN(c2nc(=O)n(-c3c(C)ccnc3C(C)C)c3nc(-c4c(O)cccc4F)c(F)cc23)C(C)C1" target_of_assay="276233-004-R-J1-PDC KRAS spheroids with HUVEC/MSC, viability" data_value=77.6
compound="CC(=O)OC12COC1CC(O)C1(C)C(=O)C(O)C3=C(C)C(OC(=O)C(O)C(NC(=O)OC(C)(C)C)c4ccccc4)CC(O)(C(OC(=O)c4ccccc4)C21)C3(C)C (stereo not given) + COc1cc2nc(C)nc(NC(C)c3cc(N)cc(C(F)(F)F)c3)c2cc1OC1CCOC1" target_of_assay="276233-004-R-J1-PDC KRAS spheroids with HUVEC/MSC, viability" data_value=65.4
compound="COc1cc(Nc2ncc3c(n2)-c2ccc(Cl)cc2C(c2c(F)cccc2OC)=NC3)ccc1C(=O)O + CNCc1ccccc1-c1csc(C(C)Nc2nc(C)nc3cc(OC)c(OC)cc23)c1" target_of_assay="276233-004-R-J1-PDC KRAS spheroids with HUVEC/MSC, viability" data_value=99.1
compound="CCN1CCN(Cc2ccc(Nc3ncc(F)c(-c4cc(F)c5nc(C)n(C(C)C)c5c4)n3)nc2)CC1 + CC1OCC2(CCN(c3cnc(Sc4ccnc(N)c4Cl)c(N)n3)CC2)C1N" target_of_assay="276233-004-R-J1-PDC KRAS spheroids with HUVEC/MSC, viability" data_value=104
compound="CCNC(=O)CC1N=C(c2ccc(Cl)cc2)c2cc(OC)ccc2-n2c(C)nnc21 (stereo not given) + COc1cc2nc(C)nc(NC(C)c3cc(N)cc(C(F)(F)F)c3)c2cc1OC1CCOC1" target_of_assay="276233-004-R-J1-PDC KRAS spheroids with HUVEC/MSC, viability" data_value=69.5
compound="CCNC(=O)CC1N=C(c2ccc(Cl)cc2)c2cc(OC)ccc2-n2c(C)nnc21 (stereo not given) + CC1OCC2(CCN(c3cnc(Sc4ccnc(N)c4Cl)c(N)n3)CC2)C1N" target_of_assay="276233-004-R-J1-PDC KRAS spheroids with HUVEC/MSC, viability" data_value=73.6
compound="CC(=O)OC12COC1CC(O)C1(C)C(=O)C(O)C3=C(C)C(OC(=O)C(O)C(NC(=O)OC(C)(C)C)c4ccccc4)CC(O)(C(OC(=O)c4ccccc4)C21)C3(C)C (stereo not given) + C=CC(=O)N1CCN(c2nc(=O)n(-c3c(C)ccnc3C(C)C)c3nc(-c4c(O)cccc4F)c(F)cc23)C(C)C1" target_of_assay="276233-004-R-J1-PDC KRAS spheroids with HUVEC/MSC, viability" data_value=70.5
compound="Cn1nccc1Nc1nccc(-c2cc3c(s2)C(C)(C)N(CCN2CCOCC2)C3=O)n1 + C=CC(=O)N1CCN(c2nc(OCC3CCCN3C)nc3c2CCN(c2cccc4cccc(C)c24)C3)CC1CC#N" target_of_assay="276233-004-R-J1-PDC KRAS spheroids with HUVEC/MSC, viability" data_value=101
compound="O=C(c1cc(Cc2n[nH]c(=O)c3ccccc23)ccc1F)N1CCN(C(=O)C2CC2)CC1 + COc1cc2nc(C)nc(NC(C)c3cc(N)cc(C(F)(F)F)c3)c2cc1OC1CCOC1" target_of_assay="276233-004-R-J1-PDC KRAS spheroids with HUVEC/MSC, viability" data_value=98
compound="COc1cc(Nc2ncc3c(n2)-c2ccc(Cl)cc2C(c2c(F)cccc2OC)=NC3)ccc1C(=O)O + COc1cc2nc(C)nc(NC(C)c3cc(N)cc(C(F)(F)F)c3)c2cc1OC1CCOC1" target_of_assay="276233-004-R-J1-PDC KRAS spheroids with HUVEC/MSC, viability" data_value=70.9
compound="Cn1nccc1Nc1nccc(-c2cc3c(s2)C(C)(C)N(CCN2CCOCC2)C3=O)n1 + COc1cc2nc(C)nc(NC(C)c3cc(N)cc(C(F)(F)F)c3)c2cc1OC1CCOC1" target_of_assay="276233-004-R-J1-PDC KRAS spheroids with HUVEC/MSC, viability" data_value=79.3
compound="Cn1nccc1Nc1nccc(-c2cc3c(s2)C(C)(C)N(CCN2CCOCC2)C3=O)n1 + CNCc1ccccc1-c1csc(C(C)Nc2nc(C)nc3cc(OC)c(OC)cc23)c1" target_of_assay="276233-004-R-J1-PDC KRAS spheroids with HUVEC/MSC, viability" data_value=94.2
compound="CC(C)NCC(C(=O)N1CCN(c2ncnc3c2C(C)CC3O)CC1)c1ccc(Cl)cc1 (stereo not given) + C=CC(=O)N1CCN(c2nc(OCC3CCCN3C)nc3c2CCN(c2cccc4cccc(C)c24)C3)CC1CC#N" target_of_assay="276233-004-R-J1-PDC KRAS spheroids with HUVEC/MSC, viability" data_value=72.8
compound="COc1cc2nccc(Oc3ccc(NC(=O)C4(C(=O)Nc5ccc(F)cc5)CC4)cc3)c2cc1OC + CC1OCC2(CCN(c3cnc(Sc4ccnc(N)c4Cl)c(N)n3)CC2)C1N" target_of_assay="276233-004-R-J1-PDC KRAS spheroids with HUVEC/MSC, viability" data_value=69.5
compound="CC(C)NCC(C(=O)N1CCN(c2ncnc3c2C(C)CC3O)CC1)c1ccc(Cl)cc1 (stereo not given) + CC1OCC2(CCN(c3cnc(Sc4ccnc(N)c4Cl)c(N)n3)CC2)C1N" target_of_assay="276233-004-R-J1-PDC KRAS spheroids with HUVEC/MSC, viability" data_value=55.8
compound="COc1cc(Nc2ncc3c(n2)-c2ccc(Cl)cc2C(c2c(F)cccc2OC)=NC3)ccc1C(=O)O + C=CC(=O)N1CCN(c2nc(OCC3CCCN3C)nc3c2CCN(c2cccc4cccc(C)c24)C3)CC1CC#N" target_of_assay="276233-004-R-J1-PDC KRAS spheroids with HUVEC/MSC, viability" data_value=70.9
compound="CC1(C)CCC(CN2CCN(c3ccc(C(=O)NS(=O)(=O)c4ccc(NCC5CCOCC5)c([N+](=O)[O-])c4)c(Oc4cnc5[nH]ccc5c4)c3)CC2)=C(c2ccc(Cl)cc2)C1 + C=CC(=O)N1CCN(c2nc(OCC3CCCN3C)nc3c2CCN(c2cccc4cccc(C)c24)C3)CC1CC#N" target_of_assay="276233-004-R-J1-PDC KRAS spheroids with HUVEC/MSC, viability" data_value=87.1
compound="O=C(c1cc(Cc2n[nH]c(=O)c3ccccc23)ccc1F)N1CCN(C(=O)C2CC2)CC1 + CC1OCC2(CCN(c3cnc(Sc4ccnc(N)c4Cl)c(N)n3)CC2)C1N" target_of_assay="276233-004-R-J1-PDC KRAS spheroids with HUVEC/MSC, viability" data_value=65.7
